# assayed.target: VIM-2 metallo β-lactamase (Pseudomonas aeruginosa)
# procedure.text: β-lactamase enzyme inhibition, VIM-2
# assay.conditions: Nitrocefin 100 μM, 486 nm; 15 min at 37° C. preincubation; read-out: IC50 VIM-2 (Class B)
measured.attribute: IC50

>>> result("CC(Cl)(Cl)C(=O)N[C@H]1Cc2cccc(C(=O)O)c2OB1O [Example 11]")
"1000 to 10000 nM"
>>> result("O=C(CCC(F)(F)F)N[C@H]1Cc2cccc(C(=O)O)c2OB1O [Example 7]")
"1000 to 10000 nM"
>>> result("N#CCCC(=O)N[C@H]1Cc2ccc(F)c(C(=O)O)c2OB1O [Example 46]")
"100 to 1000 nM"
>>> result("CC(=O)CCC(=O)N[C@H]1Cc2cccc(C(=O)O)c2OB1O [Example 10]")
"100 to 1000 nM"
>>> result("CC(=O)CCC(=O)N[C@H]1Cc2cc(F)c(F)c(C(=O)O)c2OB1O [Example 50]")
"100 to 1000 nM"
